Listed below: MIC values for each entry.
system: Klebsiella pneumoniae; assay: Antibacterial activity against Klebsiella pneumoniae ATCC 700603 assessed as inhibition of bacterial growth incubated for 18 hrs by microbroth dilution assay; assay type: functional
Where a SMILES comes first, the peptide text is derived from it. [ ]: non-standard residue; d: D form.
Form entry: value (µM) — number only.

- compound: "CO[C@H]1/C=C/O[C@@]2(C)Oc3c(C)c(O)c4c(O)c(c(/C=N/N5CCN(C)CC5)c(O)c4c3C2=O)NC(=O)/C(C)=C\\C=C\\[C@H](C)[C@H](O)[C@@H](C)[C@@H](O)[C@@H](C)[C@H](OC(C)=O)[C@@H]1C"
  unit text: "µM"
  MIC: 64

Request: Identify the reported MIC for the following entry. "NCCCC[C@H](NC(=O)[C@H](Cc1c[nH]c2ccccc12)NC(=O)[C@H](CCCCN)NC(=O)[C@H](Cc1c[nH]c2ccccc12)NC(=O)[C@H](CCCCN)NC(=O)CNC(=O)[C@H]1CCCN1C(=O)[C@H](CCCCN)NC(=O)[C@H](Cc1c[nH]c2ccccc12)NC(=O)[C@H](CCCCN)NC(=O)[C@H](Cc1c[nH]c2ccccc12)NC(=O)[C@@H](N)CCCCN)C(N)=O"
Response: 64

Request: Read off the recorded MIC for NCCCC[C@H](NC(=O)CNC(=O)[C@H]1CCCN1C(=O)[C@H](CCCCN)NC(=O)[C@H](Cc1c[nH]c2ccccc12)NC(=O)[C@H](CCCCN)NC(=O)[C@H](Cc1c[nH]c2ccccc12)NC(=O)[C@H](CCCCN)NC(=O)[C@@H](N)Cc1c[nH]c2ccccc12)C(=O)N[C@@H](Cc1c[nH]c2ccccc12)C(=O)N[C@@H](CCCCN)C(=O)N[C@@H](Cc1c[nH]c2ccccc12)C(=O)N[C@@H](CCCCN)C(=O)N[C@@H](Cc1c[nH]c2ccccc12)C(N)=O (H-WKWKWK[dP]GKWKWKW-NH2)
Response: 16

Request: Tell me its MIC given "CC[C@H](C)[C@H](NC(=O)[C@H](CCCNC(=N)N)NC(=O)[C@@H](NC(=O)[C@H](CCCNC(=N)N)NC(=O)CNC(=O)[C@H]1CCCN1C(=O)[C@H](CCCNC(=N)N)NC(=O)[C@@H](NC(=O)[C@H](CCCNC(=N)N)NC(=O)[C@@H](NC(=O)[C@@H](N)CCCNC(=N)N)[C@@H](C)CC)[C@@H](C)CC)[C@@H](C)CC)C(=O)N[C@@H](CCCNC(=N)N)C(N)=O" as the entry.
Response: 32

====

test: Hemolytic activity in Kunming mouse erythrocytes assessed as hemolysis incubated for 1 hr by multimode reader analysis; type: toxicity, cell-based; conditions: erythrocyte
Where a SMILES comes first, the peptide text is derived from it. [ ]: non-standard residue; d: D form.
// MHC10 lookup, one value per entry

// solved cases for MHC10 follow
- molecule: "CC[C@H](C)[C@H](NC(=O)[C@H](CCCNC(=N)N)NC(=O)[C@@H](NC(=O)[C@H](CCCNC(=N)N)NC(=O)CNC(=O)[C@H]1CCCN1C(=O)[C@H](CCCNC(=N)N)NC(=O)[C@@H](NC(=O)[C@H](CCCNC(=N)N)NC(=O)[C@@H](NC(=O)[C@@H](N)CCCNC(=N)N)[C@@H](C)CC)[C@@H](C)CC)[C@@H](C)CC)C(=O)N[C@@H](CCCNC(=N)N)C(N)=O"
  MHC10: "> 256 µM"
- molecule: "CC[C@H](C)[C@H](N)C(=O)N[C@@H](CCCNC(=N)N)C(=O)N[C@H](C(=O)N[C@@H](CCCNC(=N)N)C(=O)N1CCC[C@@H]1C(=O)NCC(=O)N[C@@H](CCCNC(=N)N)C(=O)N[C@H](C(=O)N[C@@H](CCCNC(=N)N)C(=O)N[C@H](C(N)=O)[C@@H](C)CC)[C@@H](C)CC)[C@@H](C)CC"
  MHC10: "> 256 µM"
- molecule: "CC[C@H](C)[C@H](N)C(=O)N[C@@H](CCCNC(=N)N)C(=O)N[C@H](C(=O)N[C@@H](CCCNC(=N)N)C(=O)N[C@H](C(=O)N[C@@H](CCCNC(=N)N)C(=O)N1CCC[C@@H]1C(=O)NCC(=O)N[C@@H](CCCNC(=N)N)C(=O)N[C@H](C(=O)N[C@@H](CCCNC(=N)N)C(=O)N[C@H](C(=O)N[C@@H](CCCNC(=N)N)C(=O)N[C@H](C(N)=O)[C@@H](C)CC)[C@@H](C)CC)[C@@H](C)CC)[C@@H](C)CC)[C@@H](C)CC"
  MHC10: "512 µM"
- molecule: "NCCCC[C@H](NC(=O)CNC(=O)[C@H]1CCCN1C(=O)[C@H](CCCCN)NC(=O)[C@H](Cc1c[nH]c2ccccc12)NC(=O)[C@H](CCCCN)NC(=O)[C@@H](N)Cc1c[nH]c2ccccc12)C(=O)N[C@@H](Cc1c[nH]c2ccccc12)C(=O)N[C@@H](CCCCN)C(=O)N[C@@H](Cc1c[nH]c2ccccc12)C(N)=O (H-WKWK[dP]GKWKW-NH2)"
  MHC10: "> 256 µM"

Please examine the following record next.
Request: Read off the recorded MHC10 for "N=C(N)NCCC[C@H](NC(=O)[C@H](Cc1ccccc1)NC(=O)[C@H](CCCNC(=N)N)NC(=O)[C@H](Cc1ccccc1)NC(=O)[C@H](CCCNC(=N)N)NC(=O)CNC(=O)[C@H]1CCCN1C(=O)[C@H](CCCNC(=N)N)NC(=O)[C@H](Cc1ccccc1)NC(=O)[C@H](CCCNC(=N)N)NC(=O)[C@H](Cc1ccccc1)NC(=O)[C@@H](N)CCCNC(=N)N)C(N)=O"
Response: > 256 µM
